Each recorded value in this set is attributed to the NIST ThermoML archive (doi:10.1016/j.tca.2016.03.013).

- Measurement protocol: molar heat capacity at constant pressure
- Particulars: 470 K; 101.33 kPa; Liquid; Small sample (50 mg) DSC
Numbers after ± are expanded uncertainties.
Value kind: molar heat capacity at constant pressure
A bare number is not enough; add the unit after it.

Check out these entries, answers already filled in.
>>> experimental_value("c1ccc2c(c1)OCCOCCOc1ccccc1OCCOCCO2 [dibenzo[b,k][1,4,7,10,13,16]hexaoxacyclooctadecane]")
"787 ± 62 J/K/mol"
>>> experimental_value("c1ccc2c(c1)OCCOCCOCCOCCOc1ccccc1OCCOCCOCCOCCO2")
"1201.9 ± 72 J/K/mol"
>>> experimental_value("C1COCCOCCOCCOCCOCCO1")
"617.4 ± 16 J/K/mol"

## Input What value of molar heat capacity at constant pressure has been reported for the following compound? `c1ccc2c(c1)OCCOCCOCCOc1ccccc1OCCOCCOCCO2`
## Output 1016.5 ± 93 J/K/mol
